tested on: EKVX; assay: NCI SRB cytotoxicity, Non-small-cell lung EKVX; format: cell-based, human; conditions: 48 h
quantityKind: Log GI 50 (mol/L)
API: value field is a number in mol/L; no unit string.

The following compounds have reported results that may help.
COc1cc2c(cc1OCCCCCN1CCN(CCCCCOc3cc4c(cc3OC)C(=O)N3CCC[C@H]3C=N4)CC1)N=C[C@@H]1CCCN1C2=O [Compound VId] : −4.33
COc1cc2c(cc1OCCCCN1CCN(CCCCOc3cc4c(cc3OC)C(=O)N3CCC[C@H]3C=N4)CC1)N=C[C@@H]1CCCN1C2=O [Compound VIc] : −6.36
COc1cc2c(cc1OCCCN1CCN(CCCOc3cc4c(cc3OC)C(=O)N3CCC[C@H]3C=N4)CC1)N=C[C@@H]1CCCN1C2=O [Compound VIb] : −4.47

Moving on to another compound below.
The recorded Log GI 50 for COc1cc2c(cc1OCCN1CCN(CCOc3cc4c(cc3OC)C(=O)N3CCC[C@H]3C=N4)CC1)N=C[C@@H]1CCCN1C2=O [Compound VIa] is −4.00
